TESTED_TARGET: SLC1A1 (Homo sapiens, UniProt P43005)
Sequence (P43005 whole entry): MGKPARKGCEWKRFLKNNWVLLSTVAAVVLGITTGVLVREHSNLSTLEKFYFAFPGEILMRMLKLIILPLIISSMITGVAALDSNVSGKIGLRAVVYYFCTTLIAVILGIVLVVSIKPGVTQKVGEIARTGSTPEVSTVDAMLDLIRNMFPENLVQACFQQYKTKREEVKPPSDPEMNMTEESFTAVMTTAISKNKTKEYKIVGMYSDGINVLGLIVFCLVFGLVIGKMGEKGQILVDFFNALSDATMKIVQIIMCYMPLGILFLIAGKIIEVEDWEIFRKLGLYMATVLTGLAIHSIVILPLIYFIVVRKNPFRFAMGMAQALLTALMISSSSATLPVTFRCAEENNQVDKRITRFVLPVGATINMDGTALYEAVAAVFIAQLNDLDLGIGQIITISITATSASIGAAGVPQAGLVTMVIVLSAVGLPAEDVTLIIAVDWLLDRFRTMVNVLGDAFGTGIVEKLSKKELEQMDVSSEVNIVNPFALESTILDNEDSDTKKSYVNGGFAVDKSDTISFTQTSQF
PROCEDURE_DETAILS: Echo-MS assay, uptake of labeled glutamic acid in dox-induced HEK293–JumpIn–SLC1A1 (EAAT3) cells
Type: cell-based
Design: expressed in transfected cells; host or cells: Jump In T-REx HEK293
SETTINGS: target SLC1A1, assay EchoMS; read-out: pIC50 (act) (converted)
Each entry below carries its reported IC50.
Value expressed in µM; do not type the unit.

The cases that follow already have their IC50 on record.
Nc1nc2ccc(OC(F)(F)F)cc2s1: 7.25
O=S(=O)(O)c1cc(N=C=S)ccc1/C=C/c1ccc(N=C=S)cc1S(=O)(=O)O: 5.72

Okay, now this compound:
Task: Hi! What's the reported IC50 for N[C@H](C(=O)O)[C@H](OCc1cccc(NC(=O)c2ccc(C(F)(F)F)cc2)c1)C(=O)O on SLC1A1 (Homo sapiens, UniProt P43005)?
Output: 0.436

----------
TESTED_TARGET: SLC23A1 (Homo sapiens, UniProt Q9UHI7)
Construct: expressed in transfected cells; host or cells: Jump In T-REx HEK293 (general cell-line paragraph)
Sequence (Q9UHI7 whole entry): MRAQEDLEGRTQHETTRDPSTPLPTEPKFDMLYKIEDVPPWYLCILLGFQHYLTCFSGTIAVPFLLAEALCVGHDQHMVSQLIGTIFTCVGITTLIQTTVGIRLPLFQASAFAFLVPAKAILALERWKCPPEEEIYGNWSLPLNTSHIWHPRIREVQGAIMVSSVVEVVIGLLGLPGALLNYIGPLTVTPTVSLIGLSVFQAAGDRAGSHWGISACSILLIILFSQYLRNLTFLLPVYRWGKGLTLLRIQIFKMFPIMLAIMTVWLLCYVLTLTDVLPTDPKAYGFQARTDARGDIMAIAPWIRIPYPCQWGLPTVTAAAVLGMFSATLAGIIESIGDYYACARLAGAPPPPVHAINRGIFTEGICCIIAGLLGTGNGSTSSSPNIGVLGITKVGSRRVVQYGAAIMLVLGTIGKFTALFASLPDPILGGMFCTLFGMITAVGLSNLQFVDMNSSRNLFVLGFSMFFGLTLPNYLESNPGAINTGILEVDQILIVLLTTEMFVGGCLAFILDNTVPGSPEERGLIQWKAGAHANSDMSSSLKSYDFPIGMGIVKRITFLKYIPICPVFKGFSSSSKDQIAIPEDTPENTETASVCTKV
PROCEDURE_DETAILS: RESOLUTE assay on SLC23A1
Type: cell-based
SETTINGS: Flipr Membrane Potential-Blue-Dye; read-out: pIC50 (act), SLC23A1 (converted)
RECORDED_METRIC: IC50

The cases that follow already have their IC50 on record.
Fc1ccc(C(OCCN2CCN(CCCc3ccccc3)CC2)c2ccc(F)cc2)cc1 [Vanoxerine (GBR12909), Vanoxerine]: > 3.16 µM
CCOC(=O)N1CCC(=C2c3ccc(Cl)cc3CCc3cccnc32)CC1 [Loratadine]: > 3.16 µM

Okay, now this compound:
Task: Name the reported IC50 value associated with the compound O=S(=O)(O)c1cc(N=C=S)ccc1/C=C/c1ccc(N=C=S)cc1S(=O)(=O)O [DIDS]
Output: > 3.16 µM

----------
TESTED_TARGET: NHE1 (SLC9A1) (Homo sapiens)
Construct: endogenous in cells; host or cells: MDA-MB-468
Sequence (P19634 whole entry): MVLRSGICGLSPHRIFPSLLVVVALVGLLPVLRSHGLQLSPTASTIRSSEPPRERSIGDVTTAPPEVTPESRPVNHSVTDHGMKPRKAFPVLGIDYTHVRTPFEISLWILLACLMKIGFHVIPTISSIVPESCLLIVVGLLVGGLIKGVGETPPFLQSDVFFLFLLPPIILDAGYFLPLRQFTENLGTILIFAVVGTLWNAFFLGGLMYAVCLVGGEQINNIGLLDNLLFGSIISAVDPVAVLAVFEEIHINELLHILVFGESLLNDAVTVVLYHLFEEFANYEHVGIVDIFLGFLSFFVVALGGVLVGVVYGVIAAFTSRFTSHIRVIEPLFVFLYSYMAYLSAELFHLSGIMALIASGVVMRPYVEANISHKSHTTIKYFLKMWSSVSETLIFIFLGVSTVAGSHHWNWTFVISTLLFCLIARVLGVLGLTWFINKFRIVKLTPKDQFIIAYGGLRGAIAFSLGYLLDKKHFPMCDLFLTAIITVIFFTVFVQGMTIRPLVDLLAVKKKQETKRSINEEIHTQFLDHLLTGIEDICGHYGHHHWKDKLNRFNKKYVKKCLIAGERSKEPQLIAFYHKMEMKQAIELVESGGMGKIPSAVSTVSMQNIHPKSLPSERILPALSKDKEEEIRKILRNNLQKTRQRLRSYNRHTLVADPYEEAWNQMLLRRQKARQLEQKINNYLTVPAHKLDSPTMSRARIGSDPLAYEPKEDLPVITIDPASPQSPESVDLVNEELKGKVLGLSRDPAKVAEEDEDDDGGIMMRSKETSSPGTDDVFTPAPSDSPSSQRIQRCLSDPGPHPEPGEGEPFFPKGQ
PROCEDURE_DETAILS: BCECF-AM pH recovery assay, MDA-MB-468 breast cancer cells
Type: cell-based
pIC50: −log10 of the molar value.
RECORDED_METRIC: pIC50

Task: Name the reported pIC50 value associated with the compound C=C(C)[C@H]1CN[C@H](C(=O)O)[C@H]1CC(=O)O
Output: < 5.00

----------
TESTED_TARGET: SLC6A2 (Homo sapiens)
Sequence (P23975 whole entry): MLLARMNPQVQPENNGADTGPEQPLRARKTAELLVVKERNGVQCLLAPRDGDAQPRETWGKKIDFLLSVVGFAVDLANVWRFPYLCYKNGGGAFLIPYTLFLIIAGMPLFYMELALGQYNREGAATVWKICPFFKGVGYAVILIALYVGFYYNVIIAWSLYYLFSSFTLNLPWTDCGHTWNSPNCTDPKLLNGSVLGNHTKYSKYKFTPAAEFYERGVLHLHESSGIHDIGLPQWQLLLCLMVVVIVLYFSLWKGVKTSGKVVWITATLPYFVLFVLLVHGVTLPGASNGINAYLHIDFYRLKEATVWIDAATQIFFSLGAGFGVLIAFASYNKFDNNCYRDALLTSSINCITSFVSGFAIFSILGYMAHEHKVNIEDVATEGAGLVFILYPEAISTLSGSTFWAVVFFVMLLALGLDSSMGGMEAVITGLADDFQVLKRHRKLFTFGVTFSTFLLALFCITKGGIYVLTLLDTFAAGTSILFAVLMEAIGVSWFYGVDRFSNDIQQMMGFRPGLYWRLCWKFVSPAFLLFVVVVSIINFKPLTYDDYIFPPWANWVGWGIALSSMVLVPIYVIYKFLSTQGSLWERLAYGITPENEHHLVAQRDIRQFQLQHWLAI
PROCEDURE_DETAILS: Impedance-based TRACT assay, HEK293–JumpIn–NET (SLC6A2) cells
Assay type: cell-based
Set-up: expressed in transfected cells; host or cells: Jump In T-REx HEK293
SETTINGS: target SLC6A2, assay TRACT; read-out: pIC50 (act) (converted)
RECORDED_METRIC: IC50

The cases that follow already have their IC50 on record.
NC(C(=O)O)C(OCc1ccccc1)C(=O)O (stereo not drawn) [Threo-beta-benzyloxyaspartic acid, Threo-beta-Benzyloxyaspartic acid]: > 10 µM
COc1ccc(C2C(C#N)=C(N)OC3=C2C(=O)CC(c2cccc4ccccc24)C3)cc1 (centres unmarked) [UCPH-101]: > 10 µM
CCNC(=O)/C=C/c1cccc(Br)c1 [Cinromide]: > 10 µM

Task: Name the reported IC50 value associated with the compound N[C@H](C(=O)O)[C@H](OCc1cccc(NC(=O)c2ccc(C(F)(F)F)cc2)c1)C(=O)O [TFB-TBOA]
Output: > 10 µM

Task: Name the reported IC50 value associated with the compound O=S(=O)(O)c1cc(N=C=S)ccc1/C=C/c1ccc(N=C=S)cc1S(=O)(=O)O [DIDS]
Output: > 10 µM
